Reference source: patent US20250002526A1

# Tested on: SULT2B1b-mediated CS production in E0771-SULT cells
# procedureSummary: CS production inhibitory effect in E0771-SULT cells (LC/MS/MS quantification of CS)
# Type: cell-based, mouse
# testContext: Mus musculus; E0771-SULT cells; read-out: IC50 value (CS production)
propertyMeasured: IC50 (µM)
Express your answer in µM, writing the number without its unit.

Look up IC50 with SULT2B1b-mediated CS production in E0771-SULT cells for this molecule: COC(=O)CC[C@@H](C)[C@H]1CC[C@H]2[C@@H]3CC=C4C[C@@H](OC(=O)C(F)(F)F)CC[C@]4(C)[C@H]3CC[C@]12C
20

Look up IC50 with SULT2B1b-mediated CS production in E0771-SULT cells for this molecule: C[C@H](CCC(=O)O)[C@H]1CC[C@H]2[C@@H]3CC[C@@H]4C[C@H](O)CC[C@]4(C)[C@H]3CC[C@]12C
7.2

Look up IC50 with SULT2B1b-mediated CS production in E0771-SULT cells for this molecule: C#CC1(O)CCC2C3CCC4=CC(=O)CCC4C3CCC21C (stereo not drawn) [Compound 31, 19-norethindrone, reference compound]
68.4

Look up IC50 with SULT2B1b-mediated CS production in E0771-SULT cells for this molecule: C#CC1(OC(C)=O)CCC2C3CCC4=CC(=O)CCC4C3CCC21C (stereo not drawn) [Compound 30, 19-norethisterone-acetate, reference compound]
34.3

Look up IC50 with SULT2B1b-mediated CS production in E0771-SULT cells for this molecule: C[C@]12CCC(OC(=O)CCN3CCOCC3)CC1=CC[C@@H]1[C@@H]2CC[C@]2(C)C(=O)CC[C@@H]12 (stereo partly drawn)
6.3

Look up IC50 with SULT2B1b-mediated CS production in E0771-SULT cells for this molecule: CC1(C2CC[C@H]3[C@@H]4CC=C5C[C@@H](O)CC[C@]5(C)[C@H]4CC[C@]23C)CS1 (stereo partly drawn)
12.8
